- target-or-test-system: Nrf2-Keap1 complex (Homo sapiens, UniProt Q14145)
- Sequence (Q14145 whole entry, one chain of several): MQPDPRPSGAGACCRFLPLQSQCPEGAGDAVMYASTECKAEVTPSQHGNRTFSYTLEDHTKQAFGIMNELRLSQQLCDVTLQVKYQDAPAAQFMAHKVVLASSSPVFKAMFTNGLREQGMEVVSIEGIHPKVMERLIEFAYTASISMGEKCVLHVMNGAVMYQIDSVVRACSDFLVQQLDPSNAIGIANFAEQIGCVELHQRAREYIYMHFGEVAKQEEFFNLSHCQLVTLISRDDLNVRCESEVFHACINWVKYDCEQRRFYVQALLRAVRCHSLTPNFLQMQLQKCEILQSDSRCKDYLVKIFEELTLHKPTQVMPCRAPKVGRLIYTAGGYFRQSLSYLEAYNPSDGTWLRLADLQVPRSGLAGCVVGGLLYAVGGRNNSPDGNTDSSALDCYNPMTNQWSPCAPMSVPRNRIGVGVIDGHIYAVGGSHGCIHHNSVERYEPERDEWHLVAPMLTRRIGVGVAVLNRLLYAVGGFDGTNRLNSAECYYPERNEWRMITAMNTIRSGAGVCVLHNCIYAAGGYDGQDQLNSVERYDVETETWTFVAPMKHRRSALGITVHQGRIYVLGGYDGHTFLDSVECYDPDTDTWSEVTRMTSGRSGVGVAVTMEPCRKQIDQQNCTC
- experiment-notes: cell-based
- Type: cell-based
- protocol-conditions: 3 h, read-out: Activation 200 nL
If the reported activation at 32 µM equals or exceeds 30%, assign 1. If not, assign -1.

compound	target-or-test-system	class-assignment
CC1CCc2cc(F)cc3c(=O)c(C(=O)O)cn1c23 (stereo not shown) [FLUMEQUINE, reference compound]	Nrf2-Keap1 complex (Homo sapiens, UniProt Q14145)	-1
COc1cccc(O)c1O	Nrf2-Keap1 complex (Homo sapiens, UniProt Q14145)	-1
COC(=O)Nc1nc2cc(C(=O)c3ccccc3)ccc2[nH]1 [MEBENDAZOLE, reference compound]	Nrf2-Keap1 complex (Homo sapiens, UniProt Q14145)	1
O=C(O)C(S)C(S)C(=O)O (stereo not shown) [2,3-DIMERCAPTOSUCCINICACID, reference compound]	Nrf2-Keap1 complex (Homo sapiens, UniProt Q14145)	1
CC(=O)Oc1ccc(Cl)c2cccnc12	Nrf2-Keap1 complex (Homo sapiens, UniProt Q14145)	1
CC(C)[C@@H](C)/C=C/[C@@H](C)[C@H]1CC[C@H]2C3=CC=C4C[C@@H](O)CC[C@]4(C)[C@H]3CC[C@]12C	Nrf2-Keap1 complex (Homo sapiens, UniProt Q14145)	1
Oc1ccc2c(c1)OCC1c3cc4c(cc3OC21)OCO4 (stereo not shown)	Nrf2-Keap1 complex (Homo sapiens, UniProt Q14145)	1
COc1cc([C@@H]2c3cc4c(c(O)c3C[C@H]3COC(=O)[C@@H]32)OCO4)cc(OC)c1OC	Nrf2-Keap1 complex (Homo sapiens, UniProt Q14145)	-1
O=C1C(O)=C(O)C(=O)C(O)=C1O	Nrf2-Keap1 complex (Homo sapiens, UniProt Q14145)	-1
C#C[C@]1(O)CC[C@H]2[C@@H]3CCC4=C(CCC(=O)C4)[C@H]3CC[C@@]21C [NORETHYNODREL, reference compound]	Nrf2-Keap1 complex (Homo sapiens, UniProt Q14145)	1
CC(C)=CCCC1(C)C=Cc2c(O)c3c(c(CC=C(C)C)c2O1)OC12C(=CCCC1C(C)(C)O[C@@]2(C/C=C(\C)C(=O)O)C(=O)O)C3=O (stereo partly shown)	Nrf2-Keap1 complex (Homo sapiens, UniProt Q14145)	1
COc1cc(C)c2c(c1C=O)Oc1c(c(C)c(O)c3c1C(O)OC3=O)OC2=O (stereo not shown) [[…]]	Nrf2-Keap1 complex (Homo sapiens, UniProt Q14145)	1
O=C1C=C2C=C[C@@H]3C[C@@]2(O1)[C@H]1CCCCN31	Nrf2-Keap1 complex (Homo sapiens, UniProt Q14145)	-1
O=C1OCCN1/N=C/c1ccc([N+](=O)[O-])o1 [FURAZOLIDONE, reference compound]	Nrf2-Keap1 complex (Homo sapiens, UniProt Q14145)	1
CCCCCCCCCCCCCC(=O)O[C@@H]1[C@@H](C)[C@@]2(O)[C@@H](C=C(CO)C[C@]3(O)C(=O)C(C)=C[C@@H]23)[C@@H]2C(C)(C)[C@]12OC(C)=O [PHORBOLMYRISTATEACETATE, reference compound]	Nrf2-Keap1 complex (Homo sapiens, UniProt Q14145)	-1
O=C1c2cccc(O)c2C(=O)c2c(O)cccc21 [DANTRON, reference compound]	Nrf2-Keap1 complex (Homo sapiens, UniProt Q14145)	-1

---

- target-or-test-system: Nrf2-Keap1 complex (Homo sapiens)
- experiment-notes: cell-based
- Assay type: cell-based
Exam item: assign Satisfied to entries whose Activation 200 nL is below 60% and Not satisfied to entries at or above 60%. Note that a value of exactly 60% receives Not satisfied.

compound	class-assignment
CC(=O)Oc1cc2c(cc1OC(C)=O)[C@@H]1c3ccc(OC(C)=O)c(OC(C)=O)c3OC[C@]1(OC(C)=O)C2 [HAEMATOXYLINPENTAACETATE]	Satisfied
COc1c(O)cc2oc3cc(O)c(CC=C(C)C)c(O)c3c(=O)c2c1CC=C(C)C [alpha-MANGOSTIN]	Satisfied
COc1ccc(C(=O)c2ccccc2)c(O)c1O	Satisfied
COC(=O)c1cc(OC)c(=O)c2c(OC)c(OC)ccc2c1	Not satisfied
CC1(C)[N+]([O-])=[N+]([O-])C1(C)Br (centres unmarked)	Not satisfied
COC(=O)CC[C@@H](C)[C@H]1CC[C@H]2[C@@H]3[C@H](O)C[C@@H]4C[C@H](O)CC[C@]4(C)[C@H]3C[C@H](O)[C@]12C [CHOLICACID, METHYLESTER]	Satisfied
CC(=O)O[C@H]1C[C@@H](O)C(C)(C)[C@@H]2C[C@@H](OC(C)=O)[C@]3(C)[C@H](CC[C@@]4(C)[C@@H](c5ccoc5)OC(=O)[C@H]5O[C@@]534)[C@@]12C [3-DEACETYLKHIVORIN]	Not satisfied

---

- target-or-test-system: Nrf2-Keap1 complex (Homo sapiens, UniProt Q14145)
- experiment-notes: cell-based
- Type: cell-based
- protocol-conditions: Table 1A; 200 nL compound; screen run at 16 and 32 μM, 3 hr
Exam item: assign Y to entries whose 200 nL (luminescence) is below 1000 and N to entries at or above 1000. Note that a value of exactly 1000 receives N.

compound	class-assignment
COc1cc([C@@H]2c3cc4c(cc3[C@@H](O)[C@H]3COC(=O)[C@H]23)OCO4)cc(OC)c1O [4′-DEMETHYLEPIPODOPHYLLOTOXIN]	N
CC(=O)NCCc1c[nH]c2ccc(O)cc12 [ACETYLSEROTONIN]	N
CCCOc1ccc2nc(NC(=O)OC)[nH]c2c1 [OXIBENDAZOLE, reference compound]	N
NC(=O)c1ccc(N)nc1 [6-AMINONICOTINAMIDE]	Y
COC(=O)Nc1nc2cc(C(=O)c3ccccc3)ccc2[nH]1 [MEBENDAZOLE, reference compound]	N
O=[N+]([O-])c1cccc2c(Br)n[nH]c12 [3-BROMO-7-NITROINDAZOLE]	Y
CC1=CC(=O)[C@H]2C(C)(C)CCC[C@]2(C)[C@@]1(O)CCc1ccoc1 [SOLIDAGENONE]	N

---

- target-or-test-system: Nrf2-Keap1 complex (Homo sapiens, UniProt Q14145)
- experiment-notes: cell-based
- Assay type: cell-based
- protocol-conditions: Table 1A; 100 nL compound; screen run at 16 and 32 μM, 3 hr

compound	100 nL (luminescence)
NC(=O)c1ccc[n+]([C@@H]2O[C@H](COP(=O)([O-])OP(=O)(O)OC[C@H]3O[C@@H](n4cnc5c(N)ncnc54)[C@H](O)[C@@H]3O)[C@@H](O)[C@H]2O)c1 [NADIDE, reference compound]	640
COC(=O)Nc1nc2ccc(Sc3ccccc3)cc2[nH]1 [FENBENDAZOLE, reference compound]	4908
O=[N+]([O-])c1cccc2c(Br)n[nH]c12	632
COc1ccc2cc1Oc1ccc(cc1)C[C@H]1c3cc(c(OC)cc3CCN1C)Oc1c(OC)c(OC)cc3c1[C@H](C2)N(C)CC3	1660
NC(=O)c1ccc(N)nc1 [6-AMINONICOTINAMIDE]	756
COC(=O)Nc1nc2cc(C(=O)c3cccs3)ccc2[nH]1 [NOCODAZOLE, reference compound]	940
COc1ccnc(C[S+]([O-])c2nc3cc(OC(F)F)ccc3[nH]2)c1OC (stereo not shown) [PANTOPRAZOLE, reference compound]	904

---

- target-or-test-system: Nrf2-Keap1 complex (Homo sapiens, UniProt Q14145)
- experiment-notes: cell-based
- Type: cell-based
property-measured: 100 nL (luminescence)

compound	assay-value
O=C(/C=C/c1ccccc1)c1ccc(O)cc1 [4′-HYDROXYCHALCONE]	3674
O=C(/C=C/c1ccc(O)cc1)c1ccc(O)cc1O [ISOLIQUIRITIGENIN]	4452
CC1CCc2cc(F)cc3c(=O)c(C(=O)O)cn1c23 (stereo not shown) [FLUMEQUINE, reference compound]	1156
CC(=O)N1CCN(c2ccc(OCC3CO[C@](Cn4ccnc4)(c4ccc(Cl)cc4Cl)O3)cc2)CC1 (stereo partly shown) [KETOCONAZOLE, reference compound]	1144

---

- target-or-test-system: Nrf2-Keap1 complex (Homo sapiens)
- experiment-notes: cell-based
- Assay type: cell-based
- protocol-conditions: Table 2; 200 nL compound; screen run at 16 and 32 μM, 3 hr
If the reported 200 nL (luminescence) equals or exceeds 2000, assign Met. If not, assign Not met.

molecule	class-assignment
COc1ccc(/C=C/C(=O)c2cc(O)ccc2O)cc1 [2′,5′-DIHYDROXY-4-METHOXYCHALCONE]	Not met
O=c1c(-c2ccc(O)cc2)coc2cc(O)cc(O)c12 [GENISTEIN]	Not met
COc1ccc(-c2oc3ccccc3c(=O)c2O)cc1OC [3-HYDROXY-3′,4′-DIMETHOXYFLAVONE]	Not met
Cc1cccc2c3c(ccc12)C1=C(C(=O)C3=O)[C@@H](C)CO1 [DIHYDROTANSHINONEI]	Not met
O=c1c(O)cccc2cc(O)c(O)c(O)c12 [PURPUROGALLIN]	Met
CC1(C)C2(Cl)C(Cl)C(Cl)C(Cl)(C(Cl)Cl)C1(Cl)C2Cl (stereo not shown) [STROBANE]	Met
